Data origin: PubChem BioAssay (NCI)

Tested on: CAKI-1 renal
Measurement Description: NCI tumour cell line growth inhibition, 48 h
Readout Name: log10(TGI) (log10 of the value in µM)
Quick note: numbers are log10 of TGI, with µM as the unit.

{"columns": ["Structure As Smiles", "log10(TGI)"],
 "data": [
  ["O=C1c2ccccc2C(=O)c2c1ccc1[nH]c(CCl)nc21", 1.00]
]}

For every record below, what is its log10(TGI)?
1. C[C@@H]1Cc2c([nH]c3ccccc23)[C@@H](c2c(F)cc(/C=C/C(=O)O)cc2F)N1CC(C)(C)F
2. COc1cc2c(NCCCCCCO[N+](=O)[O-])ncnc2c(OC)c1OC
3. CCOc1ccc(N=C/C=C(\Cl)c2ccc3ccccc3c2)cc1
4. COc1ccccc1NC(=O)c1ccc(/C=C/C(=O)c2nccn2C)cc1
5. Cc1cc(O)cc(O)c1N=Nc1ccc([N+](=O)[O-])cc1
6. COC(=O)c1c2c(c(C)[n+]([O-])c1C)C(=O)C=CC2=O

[1.79, 1.79, 1.53, 0.12, 1.59, 0.62]

For every record below, what is its log10(TGI)?
1. CCOC(=O)c1c(SCCN2CCCC2)n(-c2ccccc2)c(=S)n(-c2ccccc2)c1=O
2. N#Cc1c2c(c(Nc3ccc(F)cc3)n3c1nc1ccccc13)CCC2

1: 0.72; 2: 0.54

* * *

Exercise: for every item that follows, state its recorded GI50.
System: A549 NSCLC
Measurement Description: NCI tumour cell line growth inhibition, 48 h

For every record below, what is its GI50?
1. CNC(=O)c1cc(Oc2ccc3c(c2)sc2nc(-c4ccc(N)cc4)cn23)ccn1
2. CC1=C2[C@@H](CC1)[C@]1(C)O[C@@](C(C)C)(C[C@H]1OC(=O)[C@H](C)O)[C@H]2OC(=O)/C=C/c1ccccc1
3. CC[n+]1ccc2c(c1)C(=O)c1nccc3c1c-2nc1ccccc13
4. O=C1c2ccccc2C(=O)c2c1ccc1[nH]c(CCl)nc21
5. Clc1cccc(NC=Nc2ccc(-c3nc4ccccc4s3)cc2)c1

1. 0.474 µM
2. 12.5 µM
3. 0.958 µM
4. 2.81 µM
5. 9.11 µM

* * *

Tested on: 786-0 renal
Measurement Description: NCI tumour cell line growth inhibition, 48 h
Readout Name: TGI

Please review the entries below; each comes with its answer.
{"columns": ["Compound", "TGI"],
 "data": [
  ["CCn1c(=O)c2c3cc(O)ccc3oc2c2ccc(O)cc21", "> 100 µM"],
  ["CC(C)c1c(P(=O)(c2ccccc2)c2ccccc2)n(C)c2ccccc12", "> 100 µM"],
  ["CC1=C(CCCOC(=O)NCCCl)C2=C(C)C3(CC3)[C@@](C)(O)C(=O)C2=C1", "8.16 µM"],
  ["COc1ccccc1NC(=O)c1ccc(/C=C/C(=O)c2nccn2C)cc1", "1.34 µM"],
  ["O=C1Oc2cc3c(c4cccc1c24)OCN(c1ccc(Cl)cc1)C3", "34.5 µM"]
]}

For every record below, what is its TGI?
1. C1CN2N3CCCC23C1 (stereo unspecified)
2. O=C1/C(=C/c2ccc(F)cc2)CNC/C1=C\c1ccc(F)cc1

> 100 µM
1.45 µM

For every record below, what is its TGI?
1. COC(=O)c1c(OC)cccc1C(=O)O
2. O=c1nc2c(c(-c3cccc(Cl)c3)[nH]1)COC/C2=C\c1cccc(Cl)c1
3. Nc1ncnc2c1ncn2C(=O)NC12CC3CC(CC(C3)C1)C2
4. c1ccc(N=c2snc(-c3ccccc3)s2)cc1

1. > 100 µM
2. > 100 µM
3. > 100 µM
4. > 100 µM

* * *

Tested on: SNB-78 CNS
Measurement Description: NCI tumour cell line growth inhibition, 48 h
Readout Name: TGI (µM)
Give bare numbers, in µM.

Please review the entries below; each comes with its answer.
{"columns": ["Structure As Smiles", "Tested System", "TGI [µM]"],
 "data": [
  ["O=C(O)c1cc(S(=O)(=O)N=NC=C2c3ccccc3N(O)c3ccccc32)ccc1O", "SNB-78 CNS", 96.5],
  ["OCc1c(-c2cccc3ccccc23)sc(-c2cccc3ccccc23)c1CO", "SNB-78 CNS", 31.5],
  ["C[Si](C)(C)c1ccc(CC2(Cc3ccc([Si](C)(C)C)cc3)CCNC2)cc1", "SNB-78 CNS", 8.87]
]}

Kindly review the next molecule as well.
Fill in: TGI of COc1cc2c(c(O)c1C)C(=O)C(Cl)=CC2=O is ___ 17.4

* * *

Test system: HCT-116 colon
Measurement Description: NCI tumour cell line growth inhibition, 48 h
Readout Name: TGI

For every record below, what is its TGI?
1. O=[n+]1c(CBr)c(CBr)n([O-])c2ccccc21
2. CCOc1ccc2nc(NC(=O)/C(CC(=O)CC(C3=C(O)c4ccccc4CC3=O)c3ccccc3)=N\O)sc2c1 (stereo not given)
3. C[C@@H]1C[C@H](O)[C@]2(O)O[C@@H]3C[C@@]4(C=O)[C@@H](CC=C5[C@@H]4CC[C@]4(C)[C@@H](C6=CC(=O)OC6)CC[C@]54O)C[C@H]3O[C@@H]2O1
4. O=C(O/N=C1/CCC/C1=C\c1ccccc1)c1ccc([N+](=O)[O-])cc1
5. S=C1NCCN1C1=Nc2ccccc2CO1
6. N#Cc1cnn2ccn(C3OC(COC(=O)c4ccccc4)C(OC(=O)c4ccccc4)C3OC(=O)c3ccccc3)c12 (stereo not given)

["14.5 µM", "> 100 µM", "0.036 µM", "> 100 µM", "> 100 µM", "> 21.5 µM"]

* * *

Test system: LOX IMVI melanoma
Measurement Description: NCI tumour cell line growth inhibition, 48 h
Readout Name: TGI

{"columns": ["Structure As Smiles", "Value"],
 "data": [
  ["C/C(=N\\NC(N)=S)c1ccc(C)cc1C", "> 100 µM"],
  ["O=C1CSC(N2CCN(c3cccc(Cl)c3)CC2)=N1", "> 100 µM"],
  ["CN(C)c1ccc(/C=C2\\C[N+](C)(C)C/C(=C\\c3ccc(N(C)C)cc3)C2=O)cc1", "36.4 µM"],
  ["Cc1c(C(=O)/C=C/c2cccc3ccccc23)[n+](=O)c2ccccc2n1[O-]", "20.6 µM"]
]}

Kindly review the next compound as well.
Fill in: TGI of Cc1ccc(C(=O)Nc2ccc(CP(=O)(O)O)cc2)cc1NC(=O)c1cccc(NC(=O)Nc2cccc(C(=O)Nc3cc(C(=O)Nc4ccc(CP(=O)(O)O)cc4)ccc3C)c2)c1 is ___ > 100 µM

* * *

System: LOX IMVI melanoma
Measurement Description: NCI tumour cell line growth inhibition, 48 h
Readout Name: log10 of TGI (log10 of the value in µM)
Quick note: numbers are log10 of TGI, with µM as the unit.

{"columns": ["Compound", "log10 of TGI"],
 "data": [
  ["O=[N+]([O-])C(=C(Sc1ccccc1)Sc1ccccc1)C(Cl)=C(Cl)Cl", 0.04],
  ["Cc1cc(C)nc(NS(=O)(=O)c2ccc(NC(=O)c3cccc4c(=O)c5ccccc5[nH]c34)cc2)n1", 1.50],
  ["CC1=C[C@@H]2Cc3occc3C(C)(C)[C@@H]2CC1", 1.53]
]}

For every record below, what is its log10 of TGI?
1. CCCNC(=O)OCc1c(COC(=O)NCCC)c(-c2ccc(Cl)c(Cl)c2)n2c1CCC2
2. C=CCCCC12CCCc3cccc(c31)NC2=O (centres undefined)
3. Cc1nc(Cl)c(CBr)c(Cl)n1
4. C#CC(C)(C)Oc1cc(O)c2c(=O)c3ccccc3n(C)c2c1
5. CC1=C2[C@@H](CC1)[C@]1(C)O[C@@](C(C)C)(C[C@H]1OC(=O)[C@H](C)O)[C@H]2OC(=O)/C=C/c1ccccc1
6. CC(C)/C(Cl)=N\OC(=O)NNc1ccccc1
7. COc1cc2c(NCCCCCCO[N+](=O)[O-])ncnc2c(OC)c1OC
8. COc1cc2c(cc1O)[C@H](Cc1ccc(Oc3cc(C[C@H]4c5cc(OC)c(OC)cc5CCN4C)ccc3OC)cc1)NCC2

[1.20, 1.79, 0.25, 1.65, 1.49, 1.57, 1.69, 1.35]

For every record below, what is its log10 of TGI?
1. O=C1/C(=C/c2ccc([N+](=O)[O-])cc2)CNC/C1=C\c1ccc([N+](=O)[O-])cc1
2. O=[N+]([O-])c1ccc(NSc2ccccc2)cc1
3. O=C1OC[C@@H]2Cc3c([nH]c4ccccc34)[C@@H](c3ccc(O)cc3)N12

0.77
1.45
1.67

* * *

Test system: SF-295 CNS
Measurement Description: NCI tumour cell line growth inhibition, 48 h
Readout Name: TGI

{"columns": ["Structure As Smiles", "Tested System", "TGI"],
 "data": [
  ["COC(=O)[C@@H](C)C[C@H](Cc1ccccc1)NC(=O)c1nc([C@@H](C[C@H](C(C)C)N(C)C(=O)[C@@H](NC(=O)[C@H]2CCCN2C)C(C)C)OC(C)=O)sc1C", "SF-295 CNS", "> 25 µM"],
  ["O=C(O/N=C1/CCC/C1=C\\c1ccccc1)c1ccc([N+](=O)[O-])cc1", "SF-295 CNS", "> 100 µM"],
  ["O=C1NC(=S)NC(=O)C1C(c1ccccc1[N+](=O)[O-])C1C(=O)NC(=S)NC1=O", "SF-295 CNS", "> 100 µM"],
  ["Cc1cccc2c3ccc4c(c3n(C)c12)C(=O)C=CC4=O", "SF-295 CNS", "> 100 µM"],
  ["OCc1ccccc1C1CSCSC1", "SF-295 CNS", "> 100 µM"],
  ["CC(C)/C(Cl)=N\\OC(=O)NNc1ccccc1", "SF-295 CNS", "> 100 µM"],
  ["CC1=C2c3ccccc3N(C(=O)/C=C/C(=O)O)[C@H]2[C@H]2C(=O)OC(=O)[C@H]2C1", "SF-295 CNS", "> 10 µM"]
]}

Kindly review the next compound as well.
Fill in: TGI of CCOC(=O)c1c(N)n(-c2ccccc2)c(=S)n(-c2ccccc2)c1=O is ___ > 100 µM
